# System: heart muscle
# run.description: Heart muscle uptake and elimination of radiolabelled fatty acids after tail vein injection in mice
# Assay type: in vivo, NMRI mice
# measurement.setup: mouse, in vivo, iv
Readings of Elimination Half-time, slow elimination for the listed molecules
In your response, the unit should come after the numeric value.

### Prompt Reported Elimination Half-time, slow elimination for CCCCCCCCCCCCCCCCC([34Cl])C(=O)O (stereo not drawn) [2-^34m Cl-Stearic acid] : what is it?
### Response 9 ± 1.8 min

### Prompt Fill in the blank: the reported Elimination Half-time, slow elimination of O=C(O)CCCCCCCCCCCCCCCC[77Br] [17-^77 Br-Heptadecanoic acid] is ____.
### Response 36 ± 7.2 min

### Prompt Using the record for O=C(O)CCCCCCCCCCCCCCC[123I] [16-^123 I-Palmitic acid] , report its Elimination Half-time, slow elimination.
### Response 33 ± 6.6 min

### Prompt Dear colleague, I am looking for the recorded Elimination Half-time, slow elimination of the following molecule: O=C(O)CCCCCCCCCCCCCCCC[123I] [17-^123 I-Heptadecanoic acid]
### Response 25 ± 5.0 min

### Prompt For CCCCCCCCCCCCCCCCC([77Br])C(=O)O (stereo not drawn) [2-^77 Br-Stearic acid] , what is its reported Elimination Half-time, slow elimination?
### Response 18 ± 3.6 min

### Prompt // returns reported Elimination Half-time, slow elimination for input CCCCCCCCCCCCCCCCC([123I])C(=O)O (stereo not drawn) [2-^123 I-Stearic acid]
### Response 13 ± 2.7 min
